Give measured IC50 for each item. Keep answers brief.
# Measured target: human HDAC2 (Homo sapiens (Human))
# Sequence (Q92769 whole entry): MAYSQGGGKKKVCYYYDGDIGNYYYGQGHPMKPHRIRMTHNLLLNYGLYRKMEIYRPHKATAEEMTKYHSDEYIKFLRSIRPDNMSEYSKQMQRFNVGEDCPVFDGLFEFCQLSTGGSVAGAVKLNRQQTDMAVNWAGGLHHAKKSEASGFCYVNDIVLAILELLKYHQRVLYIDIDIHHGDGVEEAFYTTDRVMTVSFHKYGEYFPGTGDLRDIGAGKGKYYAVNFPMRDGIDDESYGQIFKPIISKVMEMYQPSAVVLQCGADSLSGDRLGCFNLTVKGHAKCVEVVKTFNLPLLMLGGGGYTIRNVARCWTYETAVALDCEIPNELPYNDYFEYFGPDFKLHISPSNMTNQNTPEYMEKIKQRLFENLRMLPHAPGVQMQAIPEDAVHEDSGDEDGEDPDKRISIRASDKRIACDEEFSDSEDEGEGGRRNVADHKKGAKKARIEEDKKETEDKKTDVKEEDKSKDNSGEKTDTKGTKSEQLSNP
# Method: HDAC2 inhibition assay (modified FLUOR DE LYS, 384-well)
# Assay type: biochemical
# Condition description: […] nM enzyme, 40 μM substrate BML-KI104, 3 h pre-incubation; read-out: HDAC2 IC50
# output: numeric value plus its unit

In [3]: df
Out[3]:
                                   compound  value_kind   value
0  Cc1ccc2cc(-c3cn(C)c([C@@H](N)CCCCCC(=O)c4ncco4)n3)ccc2n1        IC50   63 nM
1  CN[C@@H](CCCCCC(=O)c1ncco1)c1ncc(-c2cc3ccc(=O)n(C)c3cc2OC)[nH]1        IC50  6.7 nM

Hey, quick one: what's IC50 for each of these?
1. O=C1CC[C@](CCCCCC(=O)c2ncco2)(c2ncc(-c3ccc(F)cc3)[nH]2)N1
2. CC(=O)N[C@@H](CCCCCC(=O)c1ncco1)c1ncc(-c2ccc3nc(C)ccc3c2)[nH]1
3. CN(C)CC(=O)N[C@@H](CCCCCC(=O)c1ncco1)c1oc(-c2ccc(F)cc2)nc1C#N
4. COC(=O)N[C@@H](CCCCCC(=O)c1ncco1)c1ncc(-c2cc3ccc(C)nc3cc2OC)[nH]1
5. CN(C)CC(=O)N[C@@H](CCCCCC(=O)c1ncco1)c1ncc(-c2ccc3nccnc3c2)[nH]1
6. COc1nc(C2CC2)ccc1-c1c[nH]c([C@@H](N)CCCCCC(=O)c2ncco2)n1
7. Cc1ccc2cc(-c3cnc([C@H](CCCCCC(=O)c4ncco4)NC(=O)C4=NOC5(CCN(C)CC5)C4)o3)ccc2n1
8. Cc1ccc2cc(-c3cnc([C@H](CCCCCC(=O)c4ncco4)NC(=O)[C@H]4CC45CCN(C)CC5)o3)ccc2n1

// result
11 nM
5.7 nM
21 nM
9.9 nM
8.6 nM
39 nM
9.7 nM
39 nM

====

Would you mind telling me the reported log10 of IC50 of each entry?
# Measured target: human HDAC1 (Homo sapiens (Human))
# Sequence (Q13547 whole entry): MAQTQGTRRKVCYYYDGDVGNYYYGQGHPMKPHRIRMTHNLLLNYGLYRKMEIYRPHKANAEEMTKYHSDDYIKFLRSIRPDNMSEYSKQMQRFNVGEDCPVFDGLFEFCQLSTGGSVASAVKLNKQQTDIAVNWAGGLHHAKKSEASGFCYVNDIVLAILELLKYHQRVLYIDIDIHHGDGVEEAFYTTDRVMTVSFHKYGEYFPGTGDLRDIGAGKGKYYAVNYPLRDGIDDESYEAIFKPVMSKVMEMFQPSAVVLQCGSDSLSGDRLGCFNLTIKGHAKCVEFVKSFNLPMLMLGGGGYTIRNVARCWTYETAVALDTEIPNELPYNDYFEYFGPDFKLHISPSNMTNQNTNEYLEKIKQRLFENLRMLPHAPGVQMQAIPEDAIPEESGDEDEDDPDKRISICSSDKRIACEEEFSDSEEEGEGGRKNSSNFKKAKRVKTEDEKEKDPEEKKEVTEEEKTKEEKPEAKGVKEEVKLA
The figures below represent log10 of IC50, where IC50 is stated in nM.

Examples with their reported log10 of IC50 follow.
>>> print(df.to_string())
                                   compound                     measured_target  value
0  COc1nc2ccccc2cc1-c1cnc([C@H](CCCCCC(=O)c2ncco2)NC(=O)c2ccncn2)[nH]1 [Example 149]  human HDAC1 (Homo sapiens (Human))   0.23
1  CN1CCC(C(=O)N[C@@H](CCCCCC(=O)c2nccs2)c2nc(-c3ccc(F)cc3)c[nH]2)CC1 [Example 6]  human HDAC1 (Homo sapiens (Human))   0.46
2  COc1nc2ccccc2cc1-c1cnc([C@H](CCCCCC(=O)c2ncco2)NC(=O)[C@@H]2CCC(=O)N2)[nH]1 [Example 157]  human HDAC1 (Homo sapiens (Human))  -0.19
3  CN1CC(C(=O)N[C@@H](CCCCCC(=O)c2ncco2)c2ncc(-c3cc(OC4CCC4)ccc3F)[nH]2)C1 [Example 181]  human HDAC1 (Homo sapiens (Human))   0.41

Please state log10 of IC50 for every compound in the list that follows.
1. COc1cc2nc(C)ccc2cc1-c1cnc([C@H](CCCCCC(=O)c2cc(C)on2)NC(=O)CN(C)C)[nH]1 [Example 56]
2. CN1CC(C(=O)N[C@@H](CCCCCC(=O)c2ncco2)c2nc(-c3ccc(F)cc3)c[nH]2)C1 [Example 1]
3. COc1cc2nc(C)ccc2cc1-c1cnc([C@H](CCCCCC(=O)c2ncco2)NC(=O)Cn2cccc2)[nH]1 [Example 162]
4. COc1cc2nc(C)ccc2cc1-c1cnc([C@H](CCCCCC(=O)c2ncco2)NC(=O)C2COCCO2)[nH]1 (some centres unmarked) [Example 174]
5. COc1cc2nc(C)ccc2cc1-c1cnc([C@H](CCCCCC(=O)c2ccon2)NC(=O)C2CN(C)C2)[nH]1 [Example 103]

// result
1. -0.40
2. 0.04
3. 0.62
4. 0.15
5. -0.89

====

I'd be grateful if you could share measured pIC50 for these entries.
# Measured target: HDAC6 (Homo sapiens (Human))
# Sequence (Q9UBN7 whole entry): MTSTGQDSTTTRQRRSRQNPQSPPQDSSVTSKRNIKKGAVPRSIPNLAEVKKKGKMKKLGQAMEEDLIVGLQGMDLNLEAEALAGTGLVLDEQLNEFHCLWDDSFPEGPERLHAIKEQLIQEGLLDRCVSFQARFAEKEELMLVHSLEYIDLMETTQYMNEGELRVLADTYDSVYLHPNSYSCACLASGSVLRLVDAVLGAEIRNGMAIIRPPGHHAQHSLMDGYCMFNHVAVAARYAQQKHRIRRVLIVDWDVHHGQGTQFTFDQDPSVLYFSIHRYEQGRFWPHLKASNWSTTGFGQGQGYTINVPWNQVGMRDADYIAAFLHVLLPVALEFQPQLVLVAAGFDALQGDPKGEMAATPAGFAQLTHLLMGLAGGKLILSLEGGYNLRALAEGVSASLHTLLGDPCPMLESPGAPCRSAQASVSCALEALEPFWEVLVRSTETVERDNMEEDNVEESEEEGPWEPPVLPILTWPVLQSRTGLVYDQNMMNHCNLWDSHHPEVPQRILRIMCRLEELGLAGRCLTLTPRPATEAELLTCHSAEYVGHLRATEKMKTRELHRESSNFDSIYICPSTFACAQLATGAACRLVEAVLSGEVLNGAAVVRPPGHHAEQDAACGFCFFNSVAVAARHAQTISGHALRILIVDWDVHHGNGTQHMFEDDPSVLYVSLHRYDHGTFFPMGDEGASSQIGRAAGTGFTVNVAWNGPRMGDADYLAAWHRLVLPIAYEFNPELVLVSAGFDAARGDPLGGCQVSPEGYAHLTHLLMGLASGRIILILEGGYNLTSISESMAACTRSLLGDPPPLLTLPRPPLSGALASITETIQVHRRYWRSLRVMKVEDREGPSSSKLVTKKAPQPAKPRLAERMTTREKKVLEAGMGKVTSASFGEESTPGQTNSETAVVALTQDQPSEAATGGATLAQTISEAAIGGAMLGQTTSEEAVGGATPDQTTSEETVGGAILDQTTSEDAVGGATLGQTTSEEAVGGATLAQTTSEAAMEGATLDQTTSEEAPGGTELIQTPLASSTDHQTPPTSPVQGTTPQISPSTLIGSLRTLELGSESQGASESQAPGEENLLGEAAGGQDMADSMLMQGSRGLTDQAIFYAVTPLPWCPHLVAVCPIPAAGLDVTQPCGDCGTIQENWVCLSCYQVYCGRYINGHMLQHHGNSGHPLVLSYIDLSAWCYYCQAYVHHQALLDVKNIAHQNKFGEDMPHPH
Answers are plain numbers, as −log10 of the molar value.

Worked cases, answers included:
                           structure_smiles  value
0  CN1CCC2(CC1)C[C@@H]2C(=O)N[C@@H](CCCCCC(=O)c1ccon1)c1[nH]c(-c2ccccc2F)nc1Cl   5.34
1  CN(C)CC(=O)N[C@@H](CCCCCC(=O)c1ncco1)c1[nH]c(-c2ccc(F)cc2)nc1Cl   4.59
2  Cc1cc(C(=O)CCCCC[C@H](NC(=O)C2CN(C)C2)c2nc(-c3ccccc3F)c[nH]2)no1   4.35
3  Cc1ccc2cc(-c3c[nH]c([C@H](CCCCCC(=O)c4ccon4)NC(=O)[C@H]4CC45CCN(C)CC5)n3)ccc2n1   4.35

In the following, a different compound is considered.
// query Query for HDAC6 (Homo sapiens (Human)): what pIC50 does the record show for `CN1CCC(C(=O)N[C@@H](CCCCCC(=O)c2ncco2)c2nc(-c3ccc(F)cc3)c[nH]2)CC1` ?
// result 4.35

====

# Measured target: UniProtKB Q9BY41
# Sequence (Q9BY41 whole entry): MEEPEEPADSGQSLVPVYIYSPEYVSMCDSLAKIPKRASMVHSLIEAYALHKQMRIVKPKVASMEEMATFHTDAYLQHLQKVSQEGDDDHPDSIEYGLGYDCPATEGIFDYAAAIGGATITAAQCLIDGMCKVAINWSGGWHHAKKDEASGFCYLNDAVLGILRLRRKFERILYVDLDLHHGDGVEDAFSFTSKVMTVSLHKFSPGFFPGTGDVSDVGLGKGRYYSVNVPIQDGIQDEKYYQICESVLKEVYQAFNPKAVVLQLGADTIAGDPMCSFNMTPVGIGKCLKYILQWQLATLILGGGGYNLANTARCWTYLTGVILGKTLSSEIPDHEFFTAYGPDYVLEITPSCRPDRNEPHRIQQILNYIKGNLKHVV
# Method: HDAC8 inhibition assay (modified FLUOR DE LYS, 384-well)
# Type: biochemical
# Condition description: […] nM enzyme, 200 μM substrate BML-KI178, 3 h pre-incubation; read-out: HDAC8 IC50
Value kind: log10 IC50 (log10 of the value in nM)
Could you please treat all values as log10 of IC50 in nM?

>>> print(df.to_string())
                                   molecule  value_kind  value
0  COc1cc2nc(C)ccc2cc1-c1cnc([C@H](CCCCCC(=O)c2ncco2)NC(=O)C2CCN(C)CC2)[nH]1  log10 IC50   1.40
1  O=C1CC[C@](CCCCCC(=O)c2ncco2)(c2ncc(-c3ccc(F)cc3)[nH]2)N1  log10 IC50   3.49
2  O=C1CC[C@@](CCCCCC(=O)c2ccon2)(c2nc(-c3ccc(C4CC4)cc3F)c[nH]2)N1  log10 IC50   2.36
3  COc1cc2ncccc2cc1-c1c[nH]c([C@@H](N)CCCCCC(=O)c2ccon2)n1  log10 IC50   2.08
4  CCn1ccc2cc(-c3cnc([C@H](CCCCCC(=O)c4ccon4)NC(=O)CN(C)C)[nH]3)c(OC)cc2c1=O  log10 IC50   0.72
5  COc1cc2nc(C)ccc2cc1-c1cnc([C@@]2(CCCCCC(=O)c3ccon3)CCC(=O)N2)[nH]1  log10 IC50   2.41

Can you give me log10 IC50 for all of these, one by one?
1. O=C1NC(CCCCCC(=O)c2ncco2)(c2nc(-c3ccc(F)cc3)c[nH]2)CO1 (stereo not drawn)
2. COC(=O)N[C@@H](CCCCCC(=O)c1ncco1)c1ncc(-c2cc3ccc(C)nc3cc2OC)[nH]1

// result
3.64
2.20

====

Here's what we have: IC50 numbers for UniProtKB Q9UBN7.
Give bare numbers, in µM.

Below, 5 compounds whose answers are already recorded.
                                   compound  value_kind  scale_unit  value
0  COc1cc2nc(C)ccc2cc1-c1cnc([C@H](CCCCCC(=O)c2cc(C)on2)NC(=O)C2CC23CCN(C)CC3)[nH]1 (stereo partly shown)        IC50          µM     45
1  N[C@H](CCCCCC(=O)c1ccon1)c1cc(-c2ccc(F)cc2)on1        IC50          µM     45
2  COc1cc2nc(C)ccc2cc1-c1cnc([C@H](CCCCCC(=O)c2ccon2)NC(=O)CN(C)C)[nH]1        IC50          µM     11
3  COc1nc2ccccc2cc1-c1c[nH]c([C@H](CCCCCC(=O)c2ccon2)NC(=O)C2CCN(C)CC2)n1        IC50          µM      2
4  CN1CCC2(CC1)C[C@@H]2C(=O)N[C@@H](CCCCCC(=O)c1ncco1)c1[nH]c(-c2ccc(F)cc2)nc1C#N        IC50          µM     45

// moving on: another record for IC50
// query Name the reported IC50 value associated with the compound `COc1cc2nc(C)ccc2cc1-c1cnc([C@H](CCCCCC(=O)c2ncco2)NC2CCOCC2)[nH]1`
// result 15

====

# Measured target: human HDAC2 (Homo sapiens (Human))
# Method: HDAC2 inhibition assay (modified FLUOR DE LYS, 384-well)
# Assay type: biochemical
# Condition description: […] nM enzyme, 40 μM substrate BML-KI104, 3 h pre-incubation; read-out: HDAC2 IC50
Give log10(IC50) for every item shown.
Recorded IC50 (log10, nM)

>>> print(df.to_string())
                           structure_smiles                     measured_target   value_kind  value
0  O=C1CCCC[C@@](CCCCCC(=O)c2ccon2)(c2nc(-c3ccccc3F)c[nH]2)N1  human HDAC2 (Homo sapiens (Human))  log10(IC50)   1.95
1  COc1cc2ncccc2cc1-c1c[nH]c([C@@H](N)CCCCCC(=O)c2ncco2)n1  human HDAC2 (Homo sapiens (Human))  log10(IC50)   0.98
2  COc1nc2ccccc2cc1-c1cnc(CCCCCCC(=O)c2ncco2)[nH]1  human HDAC2 (Homo sapiens (Human))  log10(IC50)   1.20
3  CN(C)CC(=O)N[C@@H](CCCCCC(=O)c1ncco1)c1[nH]c(-c2ccc(F)cc2)nc1C#N  human HDAC2 (Homo sapiens (Human))  log10(IC50)   0.23
4  COc1cc2nc(C)ccc2cc1-c1cnc([C@H](CCCCCC(=O)c2ncco2)NC(=O)C2CN(C)C2)o1  human HDAC2 (Homo sapiens (Human))  log10(IC50)   0.11
5  N[C@@H](CCCCCC(=O)c1ccon1)c1nc(Cl)c(-c2ccc(F)cc2)[nH]1  human HDAC2 (Homo sapiens (Human))  log10(IC50)   0.87
6  Cc1ccc2cc(-c3cnc([C@H](CCCCCC(=O)c4ncco4)N4CCOCC4)[nH]3)ccc2n1  human HDAC2 (Homo sapiens (Human))  log10(IC50)   1.79

Now look at this entry.
// query Tell me the measured log10(IC50) of `COc1ncccc1-c1c[nH]c([C@]2(CCCCCC(=O)c3ccon3)CCCC(=O)N2)n1` , please.
// result 0.79
